target: T1, COVID S1 RBM Fc fusion (Antigen 2) (SARS-CoV-2, UniProt P0DTC2 437-508); test: phage ELISA
T1 construct: domain: S1 RBM
The following binders are listed with their measured specificity ELISA, percent binding relative to Acro S1 values.
Property label: specificity ELISA, percent binding relative to Acro S1 (%)

# Binder, Reported
records = [
    ("variant 2-1 (antibody, V domains shown) VH: EVQLLESGGGLVQPGGSLRLSCAASGFTFSNYATDWVRQAPGKGLEWVSIISGSGGATYYADSVKGRFTISRDNSKNTLYLQMNSLRAEDTAVYYCAKGGYCSSDTCWWEYWLDPWGQGTLVTVSS VL: DIQMTQSPSSLSASVGDRVTITCRASQSIHRFLNWYQQKPGKAPKLLIYAASNLHSGVPSRFSGSGSGTDFTLTISSLQPEDFATYYCQQSYGLPPTFGQGTKVEIK", 3.9),
    ("variant 3-10 (antibody, V domains shown) VH: EVQLLESGGGLVQPGGSLRLSCAASGFTFRSHAMSWVRQAPGKGLEWVSSISGGGASTYYADSVKGRFTISRDNSKNTLYLQMNSLRAEDTAVYYCARVKYLTTSSGWPRPYFDNWGQGTLVTVSS VL: DIQMTQSPSSLSASVGDRVTITCRASQSIRKYLNWYQQKPGKAPKLLIYASSTLQRGVPSRFSGSGSGTDFTLTISSLQPEDFATYYCQQSLSTPFTFGGGTKVEIK", 93.3),
    ("variant 2-13 (antibody, V domains shown) VH: EVQLLESGGGLVQPGGSLRLSCAASGFTFSDYPMNWVRQAPGKGLEWVSAISGSGDNTYYADSVKGRFTISRDNSKNTLYLQMNSLRAEDTAVYYCVRHDEYSFDYWGQGTLVTVSS VL: DIQMTQSPSSLSASVGDRVTITCRASQSIDTYLNWYQQKPGKAPKLLIYGASALESGVPSRFSGSGSGTDFTLTISSLQPEDFATYYCQQSHSAPPYFFGQGTKVEIK", 3.1),
]
